target: Pantothenate synthetase (Mycobacterium tuberculosis (strain ATCC 25618 / H37Rv)) (UniProt P9WIL5); experiment: Coupled enzyme confirmation of inhibitors against recombinant Mtb PanC (AID 375); details: coupled enzyme assay; at 10 µM, active compounds read high;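 further: 0% = full reaction with vehicle and 100% = no enzyme background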
Sequence (P9WIL5 whole entry, looked up): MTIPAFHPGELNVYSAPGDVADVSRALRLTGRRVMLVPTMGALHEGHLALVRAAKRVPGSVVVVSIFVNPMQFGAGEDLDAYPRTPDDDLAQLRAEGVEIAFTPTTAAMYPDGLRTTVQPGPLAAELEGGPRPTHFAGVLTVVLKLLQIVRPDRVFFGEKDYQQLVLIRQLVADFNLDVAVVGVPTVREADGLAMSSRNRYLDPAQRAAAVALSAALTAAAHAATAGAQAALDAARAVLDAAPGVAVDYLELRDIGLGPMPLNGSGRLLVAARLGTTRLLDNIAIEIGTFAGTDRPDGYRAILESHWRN
Activity calls are given as the source filed them. How the calls were made is not given here.
Measured inhibition accompanies every entry in the list below.

Tell me the measured inhibition of CC1(C)CC(=O)C2=C(C1)Nc1nc(SCCN3CCOCC3)[nH]c(=O)c1C2c1cccs1 (stereo not given) , please.
2% (inactive)

Tell me the measured inhibition of `COc1cccc(-c2cc(C(F)(F)F)n3nc(N)nc3n2)c1` , please.
2% (inactive)

Tell me the measured inhibition of `Fc1cccc(NCc2cn3ccccc3n2)c1` , please.
0% (inactive)

Tell me the measured inhibition of `NC(N)=Nc1nc(CSCC/C(N)=N/S(N)(=O)=O)cs1` , please.
0% (inactive)

Tell me the measured inhibition of `O=C(c1nn2cccnc2c1Cl)N1CCN(c2ccccc2)CC1` , please.
6% (inactive)

Tell me the measured inhibition of `COc1ccc(CCNC(=O)COc2ccc(S(=O)(=O)N3CCOCC3)cc2)cc1` , please.
6% (inactive)

====

target: Pantothenate synthetase (Mycobacterium tuberculosis (strain ATCC 25618 / H37Rv)) (UniProt P9WIL5); experiment: Coupled enzyme confirmation of inhibitors against recombinant Mtb PanC (AID 375); conditions: coupled enzyme assay; at 10 µM, active compounds read high;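 further: 0% = full reaction with vehicle and 100% = no enzyme background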
Where a SMILES comes first, the peptide text is derived from it. The star is where a group is joined. Boc = CC(C)(C)OC(=O)*
Quantity Measured: inhibition (%)
Give the value in % but do not write % after it.

Worked examples follow.
>>> observed_measurement("CCOc1ccccc1C1C(C(=O)Nc2ccc(OC)cc2)=C(C)Nc2nc(CCCO)nn21 (stereo not given)")
0
>>> observed_measurement("COCCCN(C)C1CCN(C(=O)Nc2ccc(F)cc2)CC1")
0
>>> observed_measurement("O=c1c2ccccc2nc(CSc2ncnc3nc[nH]c23)n1-c1ccccc1")
0
>>> observed_measurement("Cc1cc(SCC(N)=O)nc(SCC(=O)c2ccccc2)n1")
0
>>> observed_measurement("Cc1nc(-c2cccc(N)c2)cs1")
0
>>> observed_measurement("CCN(CC)C(=O)C1=C(C)NC(=O)NC1c1c(F)cccc1Cl (stereo not given)")
0
>>> observed_measurement("Cc1cc(NC(=O)CCCC(=O)Nc2ccc(F)cc2)no1")
4
>>> observed_measurement("CCOC(=O)N1CCC(c2cc(=O)n3[nH]cc(C(=O)OC)c3n2)CC1")
0

Tell me the measured inhibition of N#CC(C(=O)C1CCCCC1)c1nc2ccccc2[nH]1 (stereo not given) , please.
0

Tell me the measured inhibition of `CC(=O)N1CCc2c(sc(NC(=O)c3ccc(S(=O)(=O)N(C)C)cc3)c2C#N)C1` , please.
0

Tell me the measured inhibition of `Cc1nc2cc(C(=O)O)ccc2n1-c1ccc(F)cc1F` , please.
2

Tell me the measured inhibition of `COc1ccc(C2=NO[C@@H]3C(=O)N(c4cccc(C)c4C)C(=O)[C@H]23)cc1OC` , please.
1

Tell me the measured inhibition of CCc1ccc(C2CC(c3ccccc3)n3ncnc3N2)cc1 (stereo not given) , please.
0

Tell me the measured inhibition of CN(C)c1ccc(C=NCC2(O)CCOC(C)(C)C2)cc1 (stereo not given) , please.
3

Tell me the measured inhibition of CCN1CCN(C(c2cccs2)C(C)NC(=O)c2ccccc2)CC1 (stereo not given) , please.
12

Tell me the measured inhibition of CC(NC(=O)COc1ccc(Br)cc1)C(=O)O (stereo not given) , please.
0

Tell me the measured inhibition of `COc1cccc(CN(C(=O)c2cc3ccccc3oc2=O)C2CC2)c1` , please.
8

Tell me the measured inhibition of COc1ccc(NC2c3ncccc3C(=O)N2Cc2ccccc2)c(OC)c1 (stereo not given) , please.
0

Tell me the measured inhibition of `Cc1nnc(SCC(=O)NC(C)(C)C)n1CCc1ccccc1` , please.
0

Tell me the measured inhibition of `COc1cc(C(N)=O)ccc1OCc1ccccc1` , please.
3

Tell me the measured inhibition of `CCOc1ccc(-c2nnn(CCC(=O)O)n2)cc1OC` , please.
0

Tell me the measured inhibition of `Cc1noc(C)c1S(=O)(=O)Nc1c(C)n(C)n(-c2ccccc2)c1=O` , please.
5

Tell me the measured inhibition of O=C1CC(N2CCOCC2)C(=O)N1c1ccccc1Cl (stereo not given) , please.
1

Tell me the measured inhibition of `O=C(c1cc2nc(-c3ccco3)cc(C(F)(F)F)n2n1)N1CCN(c2ccccn2)CC1` , please.
6

Tell me the measured inhibition of `Cc1c(NC(=O)CCc2ccc(S(=O)(=O)N3CCOCC3)cc2)c(=O)n(-c2ccccc2)n1C` , please.
2

Tell me the measured inhibition of `CCCCCn1c(CN2CCN(C)CC2)nc2c1c(=O)n(C)c(=O)n2C` , please.
0

Tell me the measured inhibition of `O=S(=O)(Nc1ncccn1)c1ccc(Nc2ncnc3ccccc23)cc1` , please.
6

Tell me the measured inhibition of `C=CCNC(=O)CN(c1cccc(Br)c1)S(C)(=O)=O` , please.
0

Tell me the measured inhibition of CC(C)CC(NC(=O)OC(C)(C)C)C(=O)NC(C(=O)NC(C)C(N)=O)C(C)C (stereo not drawn) (Boc-Leu-Val-Ala-NH2; configuration not given here) , please.
16

Tell me the measured inhibition of `O=C(CN1CCN(c2nc(-c3ccccc3)cs2)CC1)Nc1ccc2c(c1)OCO2` , please.
4

Tell me the measured inhibition of `CCCn1c2c(c(O)c(C(=O)NC)c1=O)CCCC2` , please.
5

====

target: Pantothenate synthetase (Mycobacterium tuberculosis (strain ATCC 25618 / H37Rv)) (UniProt P9WIL5); experiment: Coupled enzyme confirmation of inhibitors against recombinant Mtb PanC (AID 375); details: coupled enzyme assay; at 10 µM, active compounds read high;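 further: 0% = full reaction with vehicle and 100% = no enzyme background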
Measured inhibition accompanies every entry in the list below.
Give the value in % but do not write % after it.

Worked examples follow.
>>> observed_measurement("NS(=O)(=O)c1cc2c(cc1Cl)NC(C(Cl)Cl)NS2(=O)=O (stereo unspecified)")
2
>>> observed_measurement("c1nc(NCC2CCCO2)c2[nH]cnc2n1 (stereo unspecified)")
0
>>> observed_measurement("CC(=O)N1CCN(C(=O)COc2ccc(Br)cc2)CC1")
0
>>> observed_measurement("COC(=O)C1=C(C)NC2=C(C(=O)CCC2)C1c1coc2ccccc2c1=O (stereo unspecified)")
6
>>> observed_measurement("N#CCc1nc2c3c4c(sc3ncn2n1)CCCC4")
7

We now examine a further molecule.
Tell me the measured inhibition of `Nc1nnnn1/N=C/c1ccccc1OCc1ccccc1` , please.
0

====

Measured growth inhibition accompanies every entry in the list below.
experiment: S. cerevisiae growth inhibition in permissive medium (OD615), pilot counter-assay for S. cerevisiae lifespan shortening project, permissive growth control (AID 705); conditions: OD615, 24 h, at 10 µM, active compounds read high
Give the value in % but do not write % after it.

Worked examples follow.
>>> observed_measurement("C=Cn1ccnc1P(=S)(c1ccn(C)c1)c1nccn1C=C")
-2.8
>>> observed_measurement("O=C(CN1CC(c2ccccc2)CC1=O)Nc1cccc(F)c1 (centres undefined)")
-10.1
>>> observed_measurement("CCCCn1c(C)c(C(=O)OCC)c2c(CN3CCOCC3)c(O)ccc21")
-15.6
>>> observed_measurement("O=c1cccc2n1CC1CC2CN(Cc2ccc3c(c2)OCO3)C1 (centres undefined)")
-5.27
>>> observed_measurement("O=c1cccc2n1CC1CC2CN(c2ncnc3c2cnn3-c2ccccc2)C1 (centres undefined)")
-14.6
>>> observed_measurement("COc1ccc(CN2CC3CC(C2)c2cccc(=O)n2C3)cc1OC (centres undefined)")
-11.4

Tell me the measured growth inhibition of `O=C(Cc1ccc(Br)cc1)N1CCN(Cc2ccccc2)CC1` , please.
-2.42

Tell me the measured growth inhibition of `O=C(NC1(C(F)(F)F)Oc2ccccc2O1)N1CCC2(CC1)OCCO2` , please.
-4.29

Tell me the measured growth inhibition of `CN1CCN(c2nc3ccccc3c(=O)n2-c2ccccc2)CC1` , please.
-13.4

Tell me the measured growth inhibition of `CCOc1ccc(-n2c(CC)nc3ccccc3c2=O)cc1` , please.
-2.47

Tell me the measured growth inhibition of `O=C1OCCN1P(=O)(c1ccccc1)c1ccccc1` , please.
-6.19

Tell me the measured growth inhibition of `Nc1ccccc1C(=O)c1ccccc1` , please.
-0.69

Tell me the measured growth inhibition of Cc1ccc2c(c1)C1CN(C)CCC1N2C(=O)Cn1nnc(-c2ccccc2F)n1 (centres undefined) , please.
6.06

====

Measured Her2 level accompanies every entry in the list below.
target: Receptor tyrosine-protein kinase erbB-2 (Homo sapiens); assay: Her2 expression decrease, cell viability multiplex – SKBR3 breast tumor cells, AlphaScreen, ATP viability, primary screen (AID 461); conditions: 18-24 h, at 10 µM, active compounds read low;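 further: lower value means less Her2 protein in the cells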
Give the value in % but do not write % after it.

Worked examples follow.
>>> observed_measurement("O=c1[nH]c(=O)n(-c2ccc(F)cc2)c(O)c1C=Nc1ccccc1N1CCCC1")
105
>>> observed_measurement("CCOc1cc2[nH]c(=S)n(CCCC(=O)N3CCC4(CC3)OCCO4)c(=O)c2cc1OCC")
85.5
>>> observed_measurement("CCCCn1c(O)c(C(CC)=Nc2cccc(C(=O)O)c2)c(=O)[nH]c1=O")
92
>>> observed_measurement("CC#CP(=O)(OCC)C(O)(c1ccccc1)C(F)(F)F (configuration not stated)")
85
>>> observed_measurement("CC(C)N(CCC(C(N)=O)(c1ccccc1)c1ccccn1)C(C)C (configuration not stated)")
114

Tell me the measured Her2 level of `COc1ccccc1N(CC(=O)NC1CCCCC1)C(=O)c1cnn(C(C)C)c1` , please.
104

Tell me the measured Her2 level of `CCC(=NCCCN1CCOCC1)c1c(O)n(Cc2ccccc2)c(=O)[nH]c1=O` , please.
107

Tell me the measured Her2 level of `OCCOCC#CCN1CCOCC1` , please.
114

Tell me the measured Her2 level of COc1ccc(OC)c(C2=NOC(C(=O)N3CCC4(CC3)OCCO4)C2)c1 (configuration not stated) , please.
99

Tell me the measured Her2 level of `CCn1nc(-c2ccccc2)nc2c(=O)n(C)c(=O)nc1-2` , please.
93

Tell me the measured Her2 level of `Cc1oc2ccc(OC(=O)N(C)C)cc2c1C(=O)OC(C)C` , please.
87.5

Tell me the measured Her2 level of `CCCCn1c(O)c(C(C)=NCCc2ccccc2)c(=O)[nH]c1=O` , please.
89.5

Tell me the measured Her2 level of CN(C)[C@@H]1C(=O)C(C(N)=O)=C(O)[C@@]2(O)C(=O)C3=C(O)c4c(O)ccc(Cl)c4[C@@](C)(O)C3C[C@@H]12 (some centres not stated) , please.
104
